# TARGET OR SYSTEM: T1, 4H3907-bH
# T1 chain: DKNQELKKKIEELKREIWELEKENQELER
# PROTOCOL SUMMARY: two-hybrid library CCNG1;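 further: natural log of median RNA to DNA barcode read ratio; higher means stronger binding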
Documented interaction score across a set of binders
ENDPOINT LABEL: interaction score

>>> observed_measurement("DKIQELKKEIEELEREIWELEKKNQELKR [4H2568-bH]")
1.31
>>> observed_measurement("DEIQELEKKIEELKRKIWELKKENQELER [4H363-bH]")
1.26
>>> observed_measurement("DENQELEKKIEELKRKIWELKKENQELER [4H1387-bH]")
1.59
>>> observed_measurement("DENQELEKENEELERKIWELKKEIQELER [4H1193-bH]")
0.0514
>>> observed_measurement("DEIQELEKKIEELKRENWELEKKNQELKR [4H344-bH]")
0.791
>>> observed_measurement("DKNQELKKKIEELKREIWELEKENQELER [4H3907-bH]")
0.462
